B1: OR4K15 (parent)
chain: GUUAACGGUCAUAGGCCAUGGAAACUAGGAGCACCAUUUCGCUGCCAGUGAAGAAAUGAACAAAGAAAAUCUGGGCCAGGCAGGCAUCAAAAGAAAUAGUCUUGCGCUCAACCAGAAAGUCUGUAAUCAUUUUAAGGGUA

Variants of: B1
protocol.notes: self-cleavage, relative activity (ratio to wild type); higher = more cleavage; in vitro, sequencing; the parent is a self-cleaving ribozyme
self-cleavage values for the variants below.
assay.metric: self-cleavage

> print(dat)
    mutation.name   assay.metric  measured.result
 1    A114G A129G  self-cleavage             0.07
 2           C16A  self-cleavage             1.69
 3     A22C U131G  self-cleavage             0.94
 4      U49C G79A  self-cleavage             0.13
 5     A64G A117G  self-cleavage              1.7
 6     A51U U131A  self-cleavage             1.32
 7     A68G A114G  self-cleavage             0.68
 8      C6A A111G  self-cleavage             0.08
 9     A82U U108C  self-cleavage             0.01
10      A52G A64U  self-cleavage             0.82
11      U2C U103A  self-cleavage             0.62
12     G65A A110C  self-cleavage             0.19
13       A5U U72A  self-cleavage             0.62
14      A33U A62G  self-cleavage             1.52
15      A24C A64G  self-cleavage             1.74
16      A47G A94G  self-cleavage             0.82
17     A66U C113A  self-cleavage                0
18     A55G A117G  self-cleavage             0.76
19     G83A U131C  self-cleavage             1.28
20      U43A U87C  self-cleavage             1.55
21      A60C A68G  self-cleavage             1.17
22      C35U U70C  self-cleavage             0.58
23      A59G A82G  self-cleavage             0.45
24    A118U U120A  self-cleavage             1.68
25      U39C A62G  self-cleavage             0.75
26     A36G G106A  self-cleavage             0.02
27      C32U A78U  self-cleavage             0.38
28      A52G U97A  self-cleavage             1.33
29     A52C A118G  self-cleavage             0.72
30     A68G U139A  self-cleavage             2.25
31     A78U U139A  self-cleavage              0.5
32     U19C A110C  self-cleavage             0.16
33     U19C U103C  self-cleavage             0.66
34      U38C A47G  self-cleavage             0.74
35     A52G U130A  self-cleavage             1.08
36     U37A U108C  self-cleavage                0
37      G28A U97C  self-cleavage             0.59
38      U43C A95U  self-cleavage             0.49
39     A66G C105A  self-cleavage             0.05
40     C16G U127A  self-cleavage             2.18
41      C77U A98G  self-cleavage             0.88
42      C34U A96C  self-cleavage             0.19
43     A98U A110U  self-cleavage             1.67
44     A96C U122A  self-cleavage             0.42
45      A64C U70C  self-cleavage             1.18
46       U3G A24G  self-cleavage              0.8

# credit: the RNAGym collection of RNA variant scans (doi:10.7554/elife.90254)
